The measured values listed here are drawn from the OPERA property sets (Mansouri et al. 2018).

# test-context: fish
Rule: measured log10 BCF below 2 gets 1; anything equal to or greater than 2 gets 0.

Sample answers from the record:
{"columns": ["smiles-str", "group"],
 "data": [
  ["O=C(O)c1ccc(C(=O)O)nc1", 1],
  ["Brc1cc(Br)c(Oc2ccc(Br)c(Br)c2)c(Br)c1", 0],
  ["CNC(=O)Oc1cc(C)cc(C)c1", 1],
  ["Clc1cc(Cl)c(Cl)c(Cl)c1", 0],
  ["Nc1ccc2cc(S(=O)(=O)O)cc(O)c2c1", 1],
  ["c1ccc2scnc2c1", 1],
  ["COc1cccc2ccccc12", 0],
  ["COc1ccc(C(c2ccc(OC)cc2)C(Cl)(Cl)Cl)cc1", 0],
  ["Brc1cc(Br)c(Oc2cc(Br)c(Br)cc2Br)cc1Br", 0],
  ["C[n+]1ccc(-c2cc[n+](C)cc2)cc1", 1]
]}

Exam item: Please state whether log10 BCF is below 2 for `CN(C)C(=O)Nc1ccc(Cl)c(Cl)c1`
Marked response: 1

Exam item: Decide: log10 BCF of `Cc1ccc(Cl)cc1` strictly below 2?
Marked response: 1

* * *

For each record, check the reported melting point: if it is below 10 °C write 1.0, else write 0.0.

{"columns": ["compound", "group"],
 "data": [
  ["N#C[S-].[K+]", 0.0],
  ["CCCCCCCC/C=C\\CCCCCCCCN", 0.0],
  ["CCOc1ccc(Cl)cc1", 0.0],
  ["O=C1C(CCS(=O)c2ccccc2)C(=O)N(c2ccccc2)N1c1ccccc1 (centres undefined)", 0.0],
  ["CCC(C)(C)C", 1.0]
]}

Exam item: # strict comparison: is reported melting point < 10 °C? input = `CCCCCCCCCCCCCC[N+](C)(C)C.[Br-]`
Marked response: 0.0

Exam item: Strictly below 10 °C in melting point? `C#CC(=O)O`
Marked response: 1.0

Exam item: Item `C=CC(=O)O` : melting point beneath 10 °C, strictly?
Marked response: 0.0

Exam item: hey, is melting point for `C=CCCCCCCCCCCCCCCC` lower than 10 °C or not?
Marked response: 0.0

* * *

The following molecules are listed with their measured boiling point values.
Give the number; °C is assumed, so skip it.

Past entries and their recorded results:
{"columns": ["smiles-str", "measurement-label", "display-unit", "reported"],
 "data": [
  ["CCOC(=O)C(OCC)OCC", "boiling point", "°C", 199],
  ["CCOC(=O)C(=O)c1ccccc1", "boiling point", "°C", 256]
]}

As a next step, examine the molecule that follows.
Consider `CCNCCNCC` . Its measured boiling point is 146

* * *

measurement-label: melting point

{"columns": ["molecule", "melting point"],
 "data": [
  ["COP(=S)(OC)SCn1nnc2ccccc2c1=O", "73 °C"],
  ["O=C(O)c1cc(Cl)c(C(=O)O)cc1Cl", "306 °C"],
  ["CN1CCc2cc3c(cc2C(=O)Cc2ccc4c(c2C1)OCO4)OCO3", "208 °C"],
  ["C=C(C)[C@]1(O)C2OC(=O)C1[C@]1(O)[C@H]3O[C@H]3[C@]3(CO3)[C@]1(C)C2O (stereo partly specified)", "225 °C"]
]}

response.value for `Cc1ccc(N)cc1F` (field: melting point) = 31 °C

Reported melting point of `CCCCCCC(C)C` : -80.3 °C

So, `C=CC(=O)OCC(CC)CC` ? Its melting point was -70 °C
